- assayed-target: P2Y1 receptor (Homo sapiens)
- Construct: expressed in transfected cells
- assay-details: P2Y1 IP1 accumulation HTRF assay, antagonism of agonist MRS2365 in stably transfected cells
- Format: cell-based
- assay-conditions: racemic; 5nM MRS2365; values rounded to nearest whole number; N >= 4
pIC50: −log10 of the molar value.
Recorded pIC50 values for a group of compounds are listed next.
readout-kind: pIC50

{"columns": ["compound", "readout-kind", "numeric-result"],
 "data": [
  ["O=C(Nc1ccc(Cl)cc1)Nc1cccnc1Oc1ccccc1C1(C(F)(F)F)CCO1 (racemic)", "pIC50", 6.82],
  ["Cc1ccc(NC(=O)Nc2ccc(C(C)C)cc2)c(Oc2ccccc2C2(C(F)(F)F)CCO2)n1 (racemic)", "pIC50", 7.70],
  ["O=C(Nc1ccc(OC(F)(F)F)cc1)Nc1cccnc1Oc1ccccc1C1(C(F)(F)F)CCN1CC1CC1 (racemic)", "pIC50", 7.35],
  ["O=C(Nc1ccc(C(F)F)cc1)Nc1cccnc1Oc1ccccc1C1(C(F)(F)F)CCO1 (racemic)", "pIC50", 6.59]
]}

----------
Recorded Kp at 24 h values for a group of molecules are listed next.
- assay-details: CNS penetration, single compound oral or intravenous administration, brain and plasma by LC-MS/MS
- Format: in vivo, C57B16/J mice
- assay-conditions: brain, 1 mg/kg; mouse; iv, single compound; AUC0-24h; read-out: CNS penetration: total brain to plasma ratio AUC0-24h iv

{"columns": ["molecule", "Kp at 24 h"],
 "data": [
  ["O=C(Nc1ccc(OC(F)(F)F)cc1)Nc1cccnc1Oc1ccccc1[C@]1(C(F)(F)F)CCO1 [drawing 316]", 3.1],
  ["O=C(Nc1ccc(OC(F)(F)F)cc1)Nc1cccnc1Oc1ccccc1[C@@]1(C(F)(F)F)CCO1 [drawing 315]", 3.3]
]}

----------
- assayed-target: P2Y1 receptor (Homo sapiens, UniProt P47900)
- Construct: expressed in transfected cells
- Sequence (P47900 whole entry): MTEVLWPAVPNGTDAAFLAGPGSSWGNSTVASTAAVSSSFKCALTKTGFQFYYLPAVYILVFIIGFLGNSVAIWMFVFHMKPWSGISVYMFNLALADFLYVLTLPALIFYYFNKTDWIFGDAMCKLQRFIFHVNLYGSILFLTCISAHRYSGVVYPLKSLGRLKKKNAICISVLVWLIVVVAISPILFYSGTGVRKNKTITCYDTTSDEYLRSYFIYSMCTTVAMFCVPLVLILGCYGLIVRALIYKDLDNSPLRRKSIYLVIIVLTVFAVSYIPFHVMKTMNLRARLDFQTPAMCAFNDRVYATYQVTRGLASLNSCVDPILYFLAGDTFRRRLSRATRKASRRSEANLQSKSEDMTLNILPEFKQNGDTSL
- assay-details: P2Y1 IP1 accumulation HTRF assay, antagonism of agonist MRS2365 in stably transfected cells
- Type: cell-based
- assay-conditions: single enantiomer; 5nM MRS2365; values rounded to nearest whole number
pIC50: −log10 of the molar value.
Recorded pIC50 values for a group of molecules are listed next.

{"columns": ["molecule", "pIC50"],
 "data": [
  ["O=C(Nc1ccc(OC(F)(F)F)cc1)Nc1cccnc1Oc1ccccc1[C@@]1(C(F)(F)F)CCO1", 7.17],
  ["Cc1ccc(NC(=O)Nc2ccc(C(C)C)cc2F)c(Oc2ccccc2[C@@]2(C(F)(F)F)CCO2)n1 (single isomer, unassigned)", 7.74],
  ["CC(C)c1ccc(NC(=O)Nc2cccnc2Oc2ccccc2[C@@]2(C(F)(F)F)CCO2)c(F)c1", 7.70],
  ["CN1CC[C@]1(c1ccccc1Oc1ncccc1NC(=O)Nc1ccc(OC(F)(F)F)cc1F)C(F)(F)F (single isomer, unassigned)", 7.28],
  ["CN1CC[C@]1(c1ccccc1Oc1ncccc1NC(=O)Nc1ccc(OC(F)(F)F)cc1)C(F)(F)F (racemic)", 7.11],
  ["O=C(Nc1ccc(OC(F)(F)F)cc1F)Nc1cccnc1Oc1ccccc1[C@@]1(C(F)(F)F)CCO1", 7.42],
  ["O=C(Nc1ccc(OC(F)(F)F)cc1)Nc1cccnc1Oc1ccccc1[C@]1(C(F)(F)F)CCO1", 6.92],
  ["O=C(Nc1cc(F)c(Cl)cc1F)Nc1cccnc1Oc1ccccc1[C@@]1(C(F)(F)F)CCO1 (single isomer, unassigned)", 7.36],
  ["Cc1ccc(NC(=O)Nc2ccc(C(C)(C)C(F)(F)F)cc2)c(Oc2ccccc2[C@@]2(C(F)(F)F)CCO2)n1 (single isomer, unassigned)", 7.54],
  ["Cc1ccc(NC(=O)Nc2ccc(Cl)cc2F)c(Oc2ccccc2[C@@]2(C(F)(F)F)CCO2)n1", 7.39],
  ["Cc1ccc(NC(=O)Nc2ccc(OC(F)(F)F)cc2F)c(Oc2ccccc2[C@@]2(C(F)(F)F)CCO2)n1", 7.47],
  ["Cc1ccc(NC(=O)Nc2ccc(OC(F)(F)F)cc2F)c(Oc2ccccc2[C@]2(C(F)(F)F)CCO2)n1 (racemic)", 7.17],
  ["CC(C)(c1ccc(NC(=O)Nc2cccnc2Oc2ccccc2[C@@]2(C(F)(F)F)CCO2)cc1)C(F)(F)F", 7.32],
  ["Cc1ccc(NC(=O)Nc2ccc(Cl)cc2F)c(Oc2ccccc2[C@]2(C(F)(F)F)CCO2)n1 (racemic)", 6.90],
  ["O=C(Nc1ccc(OC(F)(F)F)cc1F)Nc1cccnc1Oc1ccccc1[C@]1(C(F)(F)F)CCO1", 6.95],
  ["CN1CC[C@@]1(c1ccccc1Oc1ncccc1NC(=O)Nc1ccc(OC(F)(F)F)cc1F)C(F)(F)F (single isomer, unassigned)", 7.59],
  ["Cc1ccc(NC(=O)Nc2ccc(C(C)C)cc2F)c(Oc2ccccc2[C@]2(C(F)(F)F)CCO2)n1", 7.48],
  ["O=C(Nc1cccnc1Oc1ccccc1[C@@]1(C(F)(F)F)CCO1)Nc1ccc(Cl)c(F)c1F", 6.90],
  ["CN1CC[C@@]1(c1ccccc1Oc1ncccc1NC(=O)Nc1ccc(OC(F)(F)F)cc1)C(F)(F)F", 7.41]
]}
